Known half-life of a selection of compounds
# experiment: Pharmacokinetic experiment in mouse
# details: plasma, po
Give the value, in units of h, as a plain number.

Use the examples below as a reference point.
> print(dat)
                                   compound    readout  measurement
1  O=C(OCC1CCN(Cc2ccccc2)CC1)N1CCC(F)(CN[C@@H]2C[C@H]2c2ccccc2)CC1 (relative stereo) [Example A90]  half-life         1.93
2  O=C(OCc1ccccc1)N1CCC(F)(CNC2CC2c2ccccc2)CC1 (centres unmarked)  half-life          9.1

Query :: Looking for the measured half-life of FC1(CN[C@@H]2C[C@H]2c2ccccc2)CCNCC1 (relative stereo) , can you help?
Result :: 4.11

Query :: Lookup N[C@H]1CC[C@](F)(CNC2CC2c2ccccc2)CC1 (some centres unmarked)
Result :: 6.67

Query :: Lookup O=C(OCC1CCN(Cc2ccccc2)CC1)N1CCC(F)(CN[C@@H]2C[C@H]2c2ccccc2)CC1 [(1R,2S)-A90]
Result :: 5.15
